The reported measurements were obtained from PubChem BioAssay.

assayTarget: Luciferin 4-monooxygenase (Photinus pyralis)
assay: firefly luciferase enzyme inhibitors, primary screen, biochemical, luminescence, purified enzyme, 2006 set (AID 1141);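 also: cell-free assay with purified firefly luciferase at 100 ng per well in PBS; test concentration not given here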
setupConditions: SteadyGlo luminescence, 30 min, higher = more signal, called active from +8 up or from −8 down
Would you please tag the item t when its z-score is 0.2 or above, and f when it is below?

// below: answered molecules
molecule | assayTarget | categoryLabel
COC(=O)[C@H](C)NC(=O)CCC1CC(OC(=O)NCCc2ccc(F)cc2)CC2(CCCC(COC(=O)NCC3CCCCC3)O2)O1 (stereo partly drawn) | Luciferin 4-monooxygenase (Photinus pyralis) | t
CC1(C)O[C@H]2OC([C@H](O)CON3C(=O)c4ccccc4C3=O)[C@H](O)[C@H]2O1 (stereo partly drawn) | Luciferin 4-monooxygenase (Photinus pyralis) | f
CCO[C@H](c1cc(OC)cc([N+](=O)[O-])c1OC)[C@H](C)[C@@H](OC)[C@H](C)C=CCC(=O)OC | Luciferin 4-monooxygenase (Photinus pyralis) | f

Query string: # bool: z-score of `CCCNC(=O)OC[C@H]1O[C@H](CCON=C2c3cc(OC)ccc3O[C@H](c3cccc(OC)c3)[C@H]2O)C=C[C@@H]1Oc1ccc(OC)cc1` >= 0.2
Result string: t

Query string: # bool: z-score of `C[C@@H]1C=CCC(=O)OC[C@H](C)C(=O)N[C@@H](Cc2ccccc2)C(=O)OC1` >= 0.2
Result string: f

Query string: # bool: z-score of `CCN1C(=O)[C@H]2[C@H]3[C@H](O)[C@H](O)CC(=NNC(=O)OCc4ccccc4)[C@@H]3CC[C@H]2C1=O` >= 0.2
Result string: t

Query string: # bool: z-score of `COc1cccc([C@H](O)Cn2cc(-c3ccc(CON=C(C)C)cc3)nn2)c1` >= 0.2
Result string: t

Query string: # bool: z-score of COC(=O)[C@H](C)NC(=O)CCC1CC(OC(=O)NCc2ccc3c(c2)OCO3)CC2(CCCC(COC(=O)NCCC(C)C)O2)O1 (stereo partly drawn) >= 0.2
Result string: t
